Tested on: mPer2Luc MEF
Test: PER2::LUC luminescence relative to vehicle control (fold of vehicle); higher = higher PER2::LUC reporter signal
Settings: time after treatment: 30-hour; concentration: 0.04μM
readout_type: PER2::LUC luminescence
Lab note: write the figure by itself, no unit.

Record lookup: for mPer2Luc MEF, what PER2::LUC luminescence belongs to `O=C1c2ccccc2C(=O)c2oc(-c3ccccc3)nc21` ? 1.17

Please state recorded PER2::LUC luminescence (tested on mPer2Luc MEF) of `CC(C)NC[C@@H](C(=O)N1CCN(c2ncnc3c2[C@H](C)C[C@H]3O)CC1)c1ccc(Cl)cc1` 0.917

Give recorded PER2::LUC luminescence with mPer2Luc MEF for the following compound: `CCCCN(CCCC)C(=O)CN1C[C@H](c2ccc3c(c2)OCO3)[C@@H](C(=O)O)[C@@H]1c1ccc(OC)cc1` 1.19

Provide the documented PER2::LUC luminescence with mPer2Luc MEF as the system for `CN1CCN(c2ccc3nc(-c4c(N)c5c(F)cccc5[nH]c4=O)[nH]c3c2)CC1` 0.945

Kindly state the measured PER2::LUC luminescence obtained for `COc1cc2c(Oc3ccc4[nH]c(C)cc4c3F)ncnc2cc1OCCCN1CCCC1` with mPer2Luc MEF. 0.662

Any idea what PER2::LUC luminescence came out for `CCc1cc2c(cc1N1CCC(N3CCOCC3)CC1)C(C)(C)c1[nH]c3cc(C#N)ccc3c1C2=O` on mPer2Luc MEF? 0.817

Return PER2::LUC luminescence measured with mPer2Luc MEF given this compound: `O=C(/C=C/c1cccnc1)NCCCCC1CCN(C(=O)c2ccccc2)CC1` 0.67

Lab request: please report PER2::LUC luminescence under test system mPer2Luc MEF for `CC(C)c1cnn2c(NCc3ccccc3)cc(NCCCCCCN)nc12` 0.972

====

Test system: mPer2Luc MEF
Assay: PER2::LUC luminescence relative to vehicle control (fold of vehicle); higher = higher PER2::LUC reporter signal
Conditions: time after treatment: 30-hour; concentration: 0.37μM
Where a name gives a salt, the structure may show the parent alone.
Field: PER2::LUC luminescence. Provide a value for each of the compounds that follow.
# respond with the number and nothing more

Name the recorded PER2::LUC luminescence for `COc1ccc(-c2nc3cc(F)ccc3s2)cc1OC` . 1.69

What PER2::LUC luminescence value was documented for this compound, `Cc1cccc(/C=N/Nc2cc(N3CCOCC3)n3nc(-c4ccncc4)cc3n2)c1` ? 0.145

Query (compound): `CCN1CCN(Cc2ccc(NC(=O)Nc3ccc(Oc4cc(NC)ncn4)cc3)cc2C(F)(F)F)CC1` ; field requested: PER2::LUC luminescence 0.891

Sample `Cn1cc(/C=C/C(=O)c2cccc(F)c2)cc1/C=C/C(=O)NO` — what was its PER2::LUC luminescence? 0.894

So what does the record say about PER2::LUC luminescence for Cc1cccc(C#Cc2ccccc2)n1 [MPEP Hydrochloride] ? 1.41

// query PER2::LUC luminescence value for entry `COc1cc(NS(C)(=O)=O)ccc1Nc1c2ccccc2nc2ccccc12` 0.474

Fill blank: measured PER2::LUC luminescence of the compound CN1CCc2c(c3ccccc3n2Cc2ccc(C(=O)NO)cc2)C1 [Tubastatin A HCl] is ____. 0.982

I am curious: what PER2::LUC luminescence value has been reported for `O=c1sn(-c2cccc3ccccc23)c(=O)n1Cc1ccccc1` ? 0.856

Could you tell me which PER2::LUC luminescence is on file for `CCOC(=O)c1ccc(N(C)c2csc(-c3ccccc3)n2)cc1` ? 0.937

====

System: mPer2Luc MEF
Experiment: PER2::LUC luminescence relative to vehicle control (fold of vehicle); higher = higher PER2::LUC reporter signal
Details: time after treatment: 30-hour; concentration: 3.33μM
Where a name gives a salt, the structure may show the parent alone.
Consider the reported PER2::LUC luminescence of an entry and match it to a band in zone 1: < 0.6; zone 2: ≥ 0.6 and < 1; zone 3: ≥ 1

Class (by measured PER2::LUC luminescence) for `CN1CCN(S(=O)(=O)c2ccc(-c3cnc(N)c(C(=O)Nc4cccnc4)n3)cc2)CC1` zone 2

Class label required: `NS(=O)(=O)c1ccc(NC(=O)Nc2ccc(F)cc2)cc1` zone 3

Textbook exercise: identify the category of the compound given here, `COc1cc2c(Oc3ccc4[nH]c(C)cc4c3F)ncnc2cc1OCCCN1CCCC1` , according to its measured value. zone 1

Consider `CCOC(=O)N1c2ccc(C(F)(F)F)cc2[C@@H](N(Cc2cc(C(F)(F)F)cc(C(F)(F)F)c2)C(=O)OC)C[C@H]1CC` . To which PER2::LUC luminescence class does it belong? zone 2

Hello team, could you let me know which band the following compound falls into: `COc1cc(OC)cc(C(=O)Nc2ccc(Cl)c(-c3nc4ccc(N(C)C)cc4[nH]3)c2)c1` zone 3

Please let me know in which category the item `COc1cc(C(=O)N2CCC(N3CCN(C)CC3)CC2)ccc1Nc1ncc2c(n1)N(C)c1ccccc1C(=O)N2C` belongs. zone 1

Form field 'band' for `CC(C)NC[C@@H](C(=O)N1CCN(c2ncnc3c2[C@H](C)C[C@H]3O)CC1)c1ccc(Cl)cc1` zone 2

# bin label for `O=c1cc(N2CCOCC2)oc2c(-c3cccc4c3sc3ccccc34)cccc12` zone 3

Could you tell me which band `O=C(c1ccc(F)c(F)c1Nc1ccc(I)cc1F)N1CC(O)([C@@H]2CCCCN2)C1` belongs to? zone 1

Lab log: `Cc1cccc(/C=N/Nc2cc(N3CCOCC3)n3nc(-c4ccncc4)cc3n2)c1` — assign PER2::LUC luminescence category zone 1

Which PER2::LUC luminescence band matches CN1CCc2c(c3ccccc3n2Cc2ccc(C(=O)NO)cc2)C1 [Tubastatin A HCl] ? zone 2

Note: place this compound into its band. Item: `COc1ccc(C[C@H]2NC[C@H](O)[C@H]2OC(C)=O)cc1` zone 1

Dear colleague, I would appreciate it if you could identify the bin for `O=C(Cc1ccc(-c2ccc(OCCN3CCOCC3)cc2)cn1)NCc1ccccc1` and reply at your convenience. zone 1

Record `CC(C)(C)c1ccc(-c2nc3ccccc3[nH]2)cc1` — which class? zone 1

Note: place this compound into its band. Item: COc1cc(CCc2cc(NC(=O)c3ccc(N4CC(C)NC(C)C4)cc3)n[nH]2)cc(OC)c1 (stereo unspecified) zone 2

Could you place CCOc1cc2ncc(C#N)c(Nc3ccc(F)c(Cl)c3)c2cc1NC(=O)/C=C/CN(C)C [Pelitinib (EKB-569)] in its proper category? Many thanks. zone 2

Please classify: `O=C1c2ccccc2C(=O)c2oc(-c3ccccc3)nc21` zone 3

// return the class label for `Cc1nc(Nc2ncc(C(=O)Nc3c(C)cccc3Cl)s2)cc(N2CCN(CCO)CC2)n1` zone 1

Sort `COc1cc(-c2nc3ccccc3s2)ccc1O` into one of the categories. zone 3

Kindly identify the class of O=C(c1ccc(OCCN2CCCCC2)cc1)c1c(-c2ccc(O)cc2)sc2cc(O)ccc12 [Raloxifene HCl] . zone 2

Band of `C=CC(=O)Nc1cccc(Nc2nc(Nc3ccc(Oc4ccnc(C(=O)NC)c4)cc3)ncc2F)c1` ? zone 2

// bin(item) where item = CN1CCN(C2CCC(n3cc(-c4ccc(Oc5ccccc5)cc4)c4c(N)ncnc43)CC2)CC1 (stereo unspecified) zone 1

Hello team, could you let me know which band the following compound falls into: `COc1ccccc1-c1cc(Nc2cccc(CS(N)(=O)=O)c2)ncn1` zone 2

Using the reported PER2::LUC luminescence, which band applies to `Cc1ccc([C@@H]2O[C@H](CO)[C@@H](O)[C@H](O)[C@H]2O)cc1Cc1ccc(-c2ccc(F)cc2)s1` ? zone 2

Please let me know in which category the item `CN1CCN(c2nc3ccccc3nc2Cl)CC1` belongs. zone 3

Category of O=C(O)CCCCC(CCSCc1ccccc1)SCc1ccccc1 (stereo unspecified) : zone 3

Categorize the following entry: `O=C(O)c1ccc2c(c1)nc(Nc1cccc(Cl)c1)c1ccncc12` zone 3

Into which bin does this compound go? Cc1cccc(C#Cc2ccccc2)n1 [MPEP Hydrochloride] zone 3

Hi, small favor: classify `CC(C)c1onc(-c2c(Cl)cccc2Cl)c1COc1ccc(/C=C/c2cccc(C(=O)O)c2)c(Cl)c1` by its PER2::LUC luminescence when you get a moment. zone 3

Into which bin does this compound go? `CNC(=O)c1cc(Oc2ccc(NC(=O)Nc3cc(C(C)(C)C)nn3-c3ccc4ncccc4c3)c(F)c2)ccn1` zone 3

Could you tell me which band `Nc1ncnc2c1C(=O)N(c1ccc([C@H]3CC[C@H](CC(=O)O)CC3)cc1)CCO2` belongs to? zone 3

====

Kindly state PER2::LUC luminescence for each of the entries shown.
System: mPer2Luc MEF
Test: PER2::LUC luminescence relative to vehicle control (fold of vehicle); higher = higher PER2::LUC reporter signal
Details: time after treatment: 30-hour; concentration: 0.04μM
// no unit, no text: just the number

Need PER2::LUC luminescence of `COc1cc(NS(C)(=O)=O)ccc1Nc1c2ccccc2nc2ccccc12` , thanks. 0.43

Quick one: PER2::LUC luminescence for `Cc1ccc(-n2nc(C(C)(C)C)cc2NC(=O)Nc2ccc(OCCN3CCOCC3)c3ccccc23)cc1` ? 0.892

Which PER2::LUC luminescence value is on record for `Nc1nc(N)c2nc(-c3cccc(O)c3)cnc2n1` ? 0.829

Query: PER2::LUC luminescence; subject: `CC[C@@H]1C(=O)N(C)c2cnc(Nc3ccc(C(=O)N[C@H]4CC[C@H](N5CCN(CC6CC6)CC5)CC4)cc3OC)nc2N1C(C)C` 0.679

Find the recorded PER2::LUC luminescence belonging to `Nc1ncnc2c1C(=O)N(c1ccc([C@H]3CC[C@H](CC(=O)O)CC3)cc1)CCO2` and report it. 1.03
